Molecular target: UniProt P31389
Sequence (P31389 whole entry): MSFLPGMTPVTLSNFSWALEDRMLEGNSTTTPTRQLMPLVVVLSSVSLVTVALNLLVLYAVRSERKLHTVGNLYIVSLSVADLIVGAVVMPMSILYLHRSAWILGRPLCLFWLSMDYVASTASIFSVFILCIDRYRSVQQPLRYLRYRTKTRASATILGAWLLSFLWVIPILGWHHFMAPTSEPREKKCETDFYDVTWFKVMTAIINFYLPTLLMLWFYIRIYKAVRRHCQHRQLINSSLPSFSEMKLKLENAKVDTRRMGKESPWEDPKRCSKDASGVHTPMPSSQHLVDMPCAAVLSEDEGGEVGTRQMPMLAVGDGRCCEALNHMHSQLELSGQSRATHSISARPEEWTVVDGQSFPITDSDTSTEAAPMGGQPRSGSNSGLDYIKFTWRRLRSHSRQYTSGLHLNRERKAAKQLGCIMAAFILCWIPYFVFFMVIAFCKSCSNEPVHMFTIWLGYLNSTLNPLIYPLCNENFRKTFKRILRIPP
Experiment: Affinity for H1 histamine receptor of guinea pig ileum
Format: tissue-based
recorded.endpoint: pKB

// below: answered compounds
- compound: "Cn1c2c(c3ccccc31)C(=O)C(CN1CCCCC1)CC2 (stereo not given)"
  pKB: 5.69
- compound: "COc1ccc2[nH]cc(C3=CCN(CC4CCc5c(c6ccccc6n5C)C4=O)CC3)c2c1 (stereo not given)"
  pKB: 6.31
- compound: "Cn1c2c(c3ccccc31)C(=O)C(CN1CCC(C(=O)c3ccc(F)cc3)CC1)CC2 (racemic)"
  pKB: 6.92

1: Cn1c2c(c3ccccc31)C(=O)C(CN1CCC(C(=O)c3ccc(F)cc3)CC1)CC2 (stereo in doubt; (-)-13)
2: Cc1nccn1CC1CCc2c(c3ccccc3n2C)C1=O (stereo not given)
For the two items 1 and 2 , which reports the higher pKB value? Kindly state the label of the option you pick.
1
